# target.or.test.system: Full length human recombinant HDAC8 protein (Homo sapiens)
# Construct: Full length human recombinant HDAC8 protein was expressed in baculoviral system; made in house
# protocol.summary: In vitro histone deacetylase assay: enzymatic HDAC8 electrophoretic mobility shift assay
# Type: biochemical
# cond: electrophoretic mobility shift assay; enzyme 1 nM; 2 μM fluorescently labeled peptide substrate RHKK(Ac)-NH2; 25° C.; 12 concentrations; read-out: HDAC8 IC50
Where a name gives a salt, the structure may show the parent alone.
parameter: IC50

// returns reported IC50 for input O=C(NO)c1ccc2c(c1)N(Cc1ccccc1)CC(C(=O)N1CC3(CC3)c3ccccc31)O2 (stereo not drawn) [Compound I-4, hydrochloride]
25 to 100 nM

Now try O=C(NO)c1ccc2c(c1)N(Cc1cc(F)cc(C(F)(F)F)c1)C(=O)CO2 .
25 to 100 nM

Now try COc1ccc(CN2C(=O)C(c3ccccc3)Oc3ccc(C(=O)NO)cc32)cc1 (stereo not drawn) .
< 25 nM

Now try O=C(NO)c1ccc2c(c1)N(Cc1ccccc1F)CCO2 .
< 25 nM

Now try COc1ccc(CN2CCOc3ccc(C(=O)NO)cc32)cc1S(C)(=O)=O .
25 to 100 nM

Now try O=C(NO)c1ccc2c(c1)N(C1CCCC1)C(=O)CO2 .
100 to 1000 nM

Now try O=C(NO)c1ccc2c(c1)OC(C(=O)N1CC3(CC3)c3ccccc31)CN2Cc1ccccc1 (stereo not drawn) .
25 to 100 nM

Now try O=C(NO)c1ccc2c(c1)N(Cc1ccccc1OC(F)F)CCO2 .
25 to 100 nM

Now try O=C(NO)c1ccc2c(c1)N(CC1CCCCC1)C(=O)CO2 .
25 to 100 nM

Now try O=C(NO)c1ccc2c(c1)N(Cc1ccc(F)c(F)c1)C(=O)CO2 .
< 25 nM

Now try O=C(NO)c1ccc2c(c1)N(CC1CCCCC1)CCO2 .
25 to 100 nM

Now try CN1CC(C(=O)N2CC3(CC3)c3ccccc32)Oc2ccc(C(=O)NO)cc21 (stereo not drawn) [Compound I-3, hydrochloride] .
100 to 1000 nM

Now try COc1cccc(CN2CCOc3ccc(C(=O)NO)cc32)c1 .
25 to 100 nM

Now try COc1ccc(CN2CCOc3ccc(C(=O)NO)cc32)cc1 .
100 to 1000 nM

Now try O=C(NO)c1ccc2c(c1)N(CC1CCS(=O)(=O)CC1)C(=O)CO2 .
100 to 1000 nM

Now try O=C(NO)c1ccc2c(c1)N(Cc1nc3cccnc3n1Cc1ccccc1)C(=O)CO2 .
25 to 100 nM

Now try CN1CC(C(=O)NC2CCOCC2)Oc2ccc(C(=O)NO)cc21 (stereo not drawn) [Compound I-1, hydrochloride] .
> 1000 nM

Now try Cc1ccc2nc(CN3C(=O)COc4ccc(C(=O)NO)cc43)oc2c1 .
< 25 nM

----------
# target.or.test.system: Full length human recombinant HDAC8 protein (Homo sapiens)
# Construct: Full length human recombinant HDAC8 protein was expressed in baculoviral system; made in house
# protocol.summary: In vitro histone deacetylase assay: enzymatic HDAC8 electrophoretic mobility shift assay
# Assay type: biochemical
# cond: electrophoretic mobility shift assay; enzyme 1 nM; 2 μM fluorescently labeled peptide substrate RHKK(Ac)-NH2; 25° C.; 12 concentrations; read-out: HDAC8 IC50
pIC50: −log10 of the molar value.
parameter: pIC50

1. O=C(NO)c1ccc2c(c1)N(Cc1nc3ccccc3n1CC1CC1)CCO2
6.00 to 7.00
2. CN1CC(C(=O)NCc2ccccc2)Oc2cc(C(=O)NO)ccc21 (stereo not drawn)
7.00 to 7.60
3. CC(c1ccc(S(C)(=O)=O)cc1)N1CCOc2ccc(C(=O)NO)cc21 (stereo not drawn)
7.00 to 7.60
4. CC(C)CN1C(=O)COc2ccc(C(=O)NO)cc21
6.00 to 7.00
5. O=C(NO)c1ccc2c(c1)N(c1nc3ccccc3[nH]1)CCO2
< 6.00
6. O=C(NO)c1ccc2c(c1)N(C(=O)C1CCCCC1)CCO2
6.00 to 7.00
7. COc1ccc(CN2C(=O)COc3ccc(C(=O)NO)cc32)cc1Cl
> 7.60
8. O=C(NO)c1ccc2c(c1)N(Cc1cn(-c3ccccc3)nn1)C(=O)CO2
> 7.60

API: the following record is the query input.
// returns reported pIC50 for input O=C(NO)c1ccc2c(c1)N(Cc1ccccc1Cl)C(=O)CO2
> 7.60

----------
# target.or.test.system: Full length human recombinant HDAC8 protein (Homo sapiens, UniProt Q9BY41)
# Construct: Full length human recombinant HDAC8 protein was expressed in baculoviral system; made in house
# protocol.summary: In vitro histone deacetylase assay: enzymatic HDAC8 electrophoretic mobility shift assay
# Format: biochemical
# cond: electrophoretic mobility shift assay; enzyme 1 nM; 2 μM fluorescently labeled peptide substrate RHKK(Ac)-NH2; 25° C.; 12 concentrations; read-out: HDAC8 IC50
# Experimental: The enzymatic HDAC8 assay was performed using electrophoretic mobility shift assay. Full length human recombinant HDAC8 protein was expressed in baculoviral system and purified by affinity chromatography. […] The terminated assay plates were analyzed on LabChip® 3000 microfluidic electrophoresis instrument (Perkin Elmer/Caliper Life Sciences). The fluorescence intensity of the electrophoretically separated de-acetylated product and substrate peptide was measured. […]
parameter: IC50

1) O=C(NO)c1ccc2c(c1)N(Cc1cccc(Cl)c1)C(=O)CO2
< 25 nM
2) O=C(NO)c1ccc2c(c1)N(Cc1ccc(C(F)(F)F)cc1F)C(=O)CO2
< 25 nM
3) O=C(NO)c1ccc2c(c1)N(Cc1c(F)cccc1C(F)(F)F)C(=O)CO2
25 to 100 nM
4) O=C(NO)c1ccc2c(c1)N(Cc1ccccc1OC(F)(F)F)CCO2
100 to 1000 nM
5) CS(=O)(=O)c1ccc(CN2C(=O)COc3ccc(C(=O)NO)cc32)c(Cl)c1
< 25 nM

// returns reported IC50 for input O=C(NO)c1ccc2c(c1)N(Cc1cccc(C(F)(F)F)c1F)C(=O)CO2
25 to 100 nM

----------
# target.or.test.system: Full length human recombinant HDAC8 protein (Homo sapiens, UniProt Q9BY41)
# Construct: Full length human recombinant HDAC8 protein was expressed in baculoviral system; made in house
# Sequence (Q9BY41 1-377): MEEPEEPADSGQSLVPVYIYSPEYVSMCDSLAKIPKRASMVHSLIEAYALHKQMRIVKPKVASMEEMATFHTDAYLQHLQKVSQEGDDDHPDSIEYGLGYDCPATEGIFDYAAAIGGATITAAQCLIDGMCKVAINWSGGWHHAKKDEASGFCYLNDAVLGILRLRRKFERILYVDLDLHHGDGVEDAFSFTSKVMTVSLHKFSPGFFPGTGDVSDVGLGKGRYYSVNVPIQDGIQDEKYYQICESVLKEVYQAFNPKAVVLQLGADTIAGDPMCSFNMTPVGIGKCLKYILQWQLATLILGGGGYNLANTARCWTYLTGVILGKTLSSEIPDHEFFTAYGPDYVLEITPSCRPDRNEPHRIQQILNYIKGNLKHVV
# protocol.summary: In vitro histone deacetylase assay: enzymatic HDAC8 electrophoretic mobility shift assay
# Type: biochemical
# cond: electrophoretic mobility shift assay; enzyme 1 nM; 2 μM fluorescently labeled peptide substrate RHKK(Ac)-NH2; 25° C.; 12 concentrations; read-out: HDAC8 IC50
pIC50: −log10 of the molar value. Counter-ions that a name gives are not always drawn.
pIC50 reference

1. CN1CC(C(=O)NCc2ccccc2)Oc2ccc(C(=O)NO)cc21 (stereo not shown) [Compound I-5, hydrochloride]
7.00 to 7.60

// returns reported pIC50 for input CCCN1C(=O)COc2ccc(C(=O)NO)cc21 [Compound I-39]
6.00 to 7.00

Now try COc1ccc(C(=O)N2CCOc3ccc(C(=O)NO)cc32)cc1 [Compound I-113] .
< 6.00

Now try CCOc1c(F)cc(CN2C(=O)COc3ccc(C(=O)NO)cc32)cc1F [Compound I-250] .
7.00 to 7.60

----------
IC50 reference
# target.or.test.system: Full length human recombinant HDAC8 protein (Homo sapiens, UniProt Q9BY41)
# Construct: Full length human recombinant HDAC8 protein was expressed in baculoviral system; made in house
# protocol.summary: In vitro histone deacetylase assay: enzymatic HDAC8 electrophoretic mobility shift assay
# Type: biochemical
# cond: electrophoretic mobility shift assay; enzyme 1 nM; 2 μM fluorescently labeled peptide substrate RHKK(Ac)-NH2; 25° C.; 12 concentrations; read-out: HDAC8 IC50

For orientation, consider the following solved cases.
1) O=C(NO)c1ccc2c(c1)N(Cc1cn3ccsc3n1)CCO2
100 to 1000 nM
2) CCCc1nc(C)sc1CN1C(=O)COc2ccc(C(=O)NO)cc21
100 to 1000 nM
3) COc1ccc(CN2C(=O)COc3ccc(C(=O)NO)cc32)c(F)c1F
< 25 nM

Report IC50 for Cc1ccc2nc(CN3C(=O)C(C)(C)Oc4ccc(C(=O)NO)cc43)oc2c1 tested on Full length human recombinant HDAC8 protein (Homo sapiens, UniProt Q9BY41).
25 to 100 nM

Now try O=C(NO)c1ccc2c(c1)N(Cc1csc(C3CC3)n1)CCO2 .
100 to 1000 nM

Now try CC1Oc2ccc(C(=O)NO)cc2N(Cc2ccccc2)C1=O (stereo not drawn) .
25 to 100 nM

Now try O=C(NO)c1ccc2c(c1)N(Cc1ccccc1F)C(=O)CO2 .
< 25 nM

Now try CCC1Oc2ccc(C(=O)NO)cc2N(Cc2ccc(OC)cc2)C1=O (stereo not drawn) .
< 25 nM

Now try O=C(NO)c1ccc2c(c1)N(Cc1ccc(S(=O)(=O)C(F)F)cc1)C(=O)CO2 .
< 25 nM
